# System: Bacillus thuringiensis
# assay explanation: Antibacterial activity against Bacillus thuringiensis BT01 up to 100 ug/ml by CLSI based method
# Type: functional, organism-based
Active and inactive are the calls of the source. The rule behind the calls is not given here. Square brackets hold non-standard residues; d marks the D form. Peptide text beside a SMILES is read from it. Orn(N5-OH,N5-Ac) = CC(=O)N(O)CCC[C@H](N)C(=O)O

compound: CC(=O)N(O)CCC[C@@H]1NC(=O)[C@H](CCCN(O)C(C)=O)NC(=O)[C@H](Cc2ccccc2)NC(=O)[C@H](CC(C)C)NC(=O)[C@H](Cc2ccccc2)NC(=O)[C@H](CCCN(O)C(C)=O)NC1=O (cyclo(FLF[Orn(N5-OH,N5-Ac)][Orn(N5-OH,N5-Ac)][Orn(N5-OH,N5-Ac)]))
Activity: inactive
--
compound: CC(=O)N(O)CCC[C@@H]1NC(=O)[C@H](CCCN(O)C(C)=O)NC(=O)[C@H](CCCN(O)C(C)=O)NC(=O)[C@H](Cc2ccccc2)NC(=O)[C@H](CC(C)C)NC(=O)[C@H](CO)NC1=O (cyclo(F[Orn(N5-OH,N5-Ac)][Orn(N5-OH,N5-Ac)][Orn(N5-OH,N5-Ac)]SL))
Activity: inactive
--
compound: CC(=O)N(O)CCC[C@@H]1NC(=O)[C@H](CCCN(O)C(C)=O)NC(=O)[C@H](CCCN(O)C(C)=O)NC(=O)[C@H](Cc2ccccc2)NC(=O)[C@H](CC(C)C)NC(=O)[C@H](C)NC1=O (cyclo(ALF[Orn(N5-OH,N5-Ac)][Orn(N5-OH,N5-Ac)][Orn(N5-OH,N5-Ac)]))
Activity: inactive
--
compound: CC(=O)N(O)CCC[C@@H]1NC(=O)[C@H](CCCN(O)C(C)=O)NC(=O)[C@H](Cc2ccccc2)NC(=O)[C@H](CC(C)C)NC(=O)[C@H](Cc2c[nH]c3ccccc23)NC(=O)[C@H](CCCN(O)C(C)=O)NC1=O (cyclo(F[Orn(N5-OH,N5-Ac)][Orn(N5-OH,N5-Ac)][Orn(N5-OH,N5-Ac)]WL))
Activity: inactive
